Taken from PubChem BioAssay (NCI).

# Test system: NCI-H226 lung
# testName: NCI-60 one-dose screen, 48 h
# experimentalConditions: 10 µM
This is part of a sample that, as a whole, favours compounds with a hit. Of some 83,000 tested, about 20% had one in any assay. Calls of active or inactive are those of the source. The calls were made as follows: active = growth percent below 10; inactive = the rest.
Give your call using only these classes: Yes (active), No (inactive)

Tell me the recorded outcome of this test for CCCCCc1cc[n+](CC(=O)c2ccc(Cl)cc2)cc1 . No

Tell me the recorded outcome of this test for O=C1/C(=C/c2ccc([N+](=O)[O-])s2)Oc2ccc(Cl)cc21 . Yes

Tell me the recorded outcome of this test for CCCN(CCC)CCCNC(=O)c1cc2c(-c3ccc(OC)c(OC)c3)nn(C)c2s1 . No

Tell me the recorded outcome of this test for Cc1ccc(/C=C2\CN(Cc3cn(CCNc4ccnc5cc(Cl)ccc45)nn3)C/C(=C\c3ccc(C)cc3)C2=O)cc1 . Yes

Tell me the recorded outcome of this test for COc1cc2nc(Sc3sc(N)nc3C)n(-c3ccc(Oc4ccccc4)cc3)c(=O)c2cc1OC . No

Tell me the recorded outcome of this test for CC(Oc1ccc(Cl)cc1)c1ccccc1 (stereo not given) . No

Tell me the recorded outcome of this test for CCc1c(C)[nH]c(=O)c(C(N)=O)c1C#N . No

Tell me the recorded outcome of this test for COc1ccccc1CNCCCN1C(=O)c2ccc3c4c(ccc(c24)C1=O)C(=O)N(CCCNCCNCCCN)C3=O . No

Tell me the recorded outcome of this test for COc1cc(NS(C)(=O)=O)ccc1Nc1c2ccc(Cl)cc2nc2c(OC)cccc12 . Yes

Tell me the recorded outcome of this test for COc1ccc(-n2nnc3c(sc4ccccc43)c2=O)cc1 . No
